Target: human CCR1 (Homo sapiens, UniProt P32246)
Sequence (P32246 whole entry): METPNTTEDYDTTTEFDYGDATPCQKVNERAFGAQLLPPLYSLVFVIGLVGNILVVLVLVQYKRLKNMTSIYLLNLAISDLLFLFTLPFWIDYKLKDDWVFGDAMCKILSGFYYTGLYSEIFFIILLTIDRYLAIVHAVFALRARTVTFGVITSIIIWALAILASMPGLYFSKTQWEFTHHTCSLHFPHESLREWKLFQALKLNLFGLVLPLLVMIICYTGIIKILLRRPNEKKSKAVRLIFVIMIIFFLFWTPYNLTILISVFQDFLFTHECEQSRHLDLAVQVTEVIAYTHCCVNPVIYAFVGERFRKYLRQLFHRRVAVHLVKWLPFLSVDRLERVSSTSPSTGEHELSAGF
pIC50: −log10 of the molar value.
Observation Type: pIC50

Below are worked cases with known answers.
// compound "Cc1nnc([C@H]2CCCN2C(=O)Nc2cccc(S(C)(=O)=O)c2)n1Cc1ccc(Cl)cc1" , assay human CCR1 (Homo sapiens, UniProt P32246), pIC50 value: 5.30 to 6.30

Reported human CCR1 (Homo sapiens, UniProt P32246) pIC50 for item "Cc1nnc([C@H]2CCCN2C(=O)Nc2nnc(C(F)(F)F)s2)n1Cc1ccc(Cl)cc1" was 5.30 to 6.30

Considering "CC[C@H](NC(=O)N1CCC[C@@H]1c1nnc(C)n1Cc1ccc(Cl)cc1)c1ccc(C(F)(F)F)nc1" , its pIC50 with human CCR1 (Homo sapiens, UniProt P32246) was recorded as > 7.30

Further cases:
# pIC50 measured on human CCR1 (Homo sapiens, UniProt P32246) for item "Cc1onc(NC(=O)N2CCC[C@@H]2c2nnc(C)n2Cc2ccc(Cl)cc2)c1F" = 6.30 to 7.30

Item "Cc1nnc([C@H]2CCCN2C(=O)Cc2cccc(C(F)(F)F)c2)n1Cc1ccc(Cl)cc1" was tested on human CCR1 (Homo sapiens, UniProt P32246); the reported pIC50 is 6.30 to 7.30

Bench note, human CCR1 (Homo sapiens, UniProt P32246): entry "Cc1nnc([C@H]2C[C@H](O)CN2C(=O)Nc2ccc(Cl)c(C(F)(F)F)c2)n1Cc1ccc(Cl)cc1" , its pIC50 = > 7.30

Measured pIC50 (human CCR1 (Homo sapiens, UniProt P32246)), entry "Cc1nnc([C@H]2CCCN2C(=O)Cc2cc(C(F)(F)F)ccc2Cl)n1Cc1ccc(Cl)cc1" : > 7.30

With human CCR1 (Homo sapiens, UniProt P32246) as the test system, "Cc1nc(C(F)(F)F)ccc1N/C(=N\O)N1CCC[C@@H]1c1nnc(C)n1Cc1ccc(Cl)cc1" showed pIC50 of 6.30 to 7.30

Observed pIC50, human CCR1 (Homo sapiens, UniProt P32246), "Cc1nnc([C@H]2CCCN2C(=O)Nc2ccc(C(C)(C)C)cc2)n1Cc1ccc(Cl)cc1" : > 7.30
